Assay: Kaposi's Sarcoma test: toxicity values
Type: cell-based
Conditions: human, TPA-induced BCBL-1 cells (HHV8 cell line); read-out: TC50 (the source's name)
value.type: CC50 (µM)
Note: unit µM is implicit; provide only the numeric part.

c1csc(-c2nc3cccnc3[nH]2)c1 [2-(2-thienyl)-imidazolo [4,5-b]pyridine] has a reported CC50 of 32.6

* * *

Target: HIV-1 integrase (Human immunodeficiency virus type 1 group M subtype B)
Assay: HIV-1 integrase inhibition assay
Format: biochemical
Text: A biochemical integrase assay described by Craigie et at (HIV, vol. 2: A practical Approach) Biochemistry, Molecular Biology and Drug Discovery, Ed. J. Kam 1995) to screen agents for their ability to inhibit HIV-1 integrase. In this system, a kinased oligonucleotide serves as the target of 3′ processing and the subsequent strand transfer reaction. […]
pEC50: −log10 of the molar value. Counter-ions that a name gives are not always drawn.
Measured pEC50, listed per entry for reference.

[[record]]
compound = "c1csc(-c2nc3cccnc3[nH]2)c1 [2-(2-thienyl)-imidazolo [4,5-b]pyridine]"
recorded_result = "< 3.30"


Recorded pEC50 for c1csc(-c2nc3cccnc3[nH]2)c1 [hydrochloride salt] on HIV-1 integrase (Human immunodeficiency virus type 1 group M subtype B) was < 3.38
